# Assay method text: activators of APP 5'UTR luciferase reporter, primary screen, SH-SY5Y cells (AID 1276)
# Condition label: SH-SY5Y APP 5'UTR luciferase reporter, luminescence; at 2 µM; zero percent = DMSO vehicle wells
In all, about 190,000 compounds went through this assay and about 2,000 (1.1%) were called active.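 How the source made its calls: active means activation above a set limit, based on mean plus 3 SD of controls (cut at about 140% in these data); inconclusive means one replicate above the limit, the other below; inactive means the rest.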 What follows is part of a selection rich in actives, with near analogues and random picks from the rest.
# valid calls are active, inactive; nothing else

Answered examples (5):
C=CCN(C(=O)Nc1ccc2oc(C)nc2c1)c1ccccc1; inactive
CC(=O)c1ccc(S(=O)(=O)Nc2ccc(C(=O)NCC(c3ccccc3)N(C)C)cc2)cc1 (stereo not drawn); inactive
COc1ccc2nc(Nc3nc(-c4ccncc4)cs3)sc2c1; inactive
Cc1ccc(-c2csc(NNC(=O)c3ccccc3)n2)cc1; inactive
O=C(Nc1ccc2sc3ccccc3c(=O)c2c1)c1ccccc1Cl; active

Entry `CCN(CC)CCOC(=O)c1ccc(NC(=O)CNC(=O)c2ccccc2)cc1` : call = ?
inactive

Look up the recorded call for COc1ccc(C2=NOC3(CC(=O)N(c4ccc(C)cc4)C3=O)C2)cc1 (stereo not drawn) in this test.
inactive

In this assay, the call recorded for `O=C(O)c1ccc2c(c1)C(=O)N(c1ccc(/C=C/C(=O)c3ccccc3)cc1)C2=O` was what?
inactive

Please share the test call associated with `Cc1nc2cc(NC(=O)NCc3ccccc3)ccc2o1` .
inactive

The reported measurements were obtained from PubChem BioAssay AID1276.
